Target: T1, recombinant human IL-23 (hrIL-23), produced at Centocor (human, UniProt P29460 23-328)
T1 construct: p19-p40 heterodimer; also called rhIL-23; huIL-23
T1 sequence 1: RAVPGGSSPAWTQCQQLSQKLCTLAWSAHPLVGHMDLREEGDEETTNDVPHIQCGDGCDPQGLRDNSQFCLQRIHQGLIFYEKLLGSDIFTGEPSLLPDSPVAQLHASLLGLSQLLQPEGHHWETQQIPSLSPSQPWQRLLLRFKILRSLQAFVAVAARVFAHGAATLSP
T1 sequence 2: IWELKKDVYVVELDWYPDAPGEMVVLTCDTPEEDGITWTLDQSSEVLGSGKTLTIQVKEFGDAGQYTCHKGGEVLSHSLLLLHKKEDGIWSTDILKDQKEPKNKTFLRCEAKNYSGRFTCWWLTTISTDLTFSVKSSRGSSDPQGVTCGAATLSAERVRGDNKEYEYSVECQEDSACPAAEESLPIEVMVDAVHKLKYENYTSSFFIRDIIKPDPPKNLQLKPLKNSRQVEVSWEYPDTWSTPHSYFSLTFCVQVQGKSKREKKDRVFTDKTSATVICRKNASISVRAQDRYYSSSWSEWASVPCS
Test: SET
QUANTITY_KIND: pKd
Quick note: pKd values are minus log10 of concentrations in mol/L.

[
  {
    "BINDER": "MOR05061 Fab (Fab, V domains shown, Fab) VH: QVQLVESGGGLVQPGGSLRLSCAASGFTFSSFGMSWVRQAPGKGLEWVSNISSSGSSTYYADSVKGRFTISRDNSKNTLYLQMNSLRAEDTAVYYCARYWGTPYLMQFDNWGQGTLVTVSS VL: DIALTQPASVSGSPGQSITISCTGTSSDVGGYNSVSWYQQHPGKAPKLMIYSVSSRPSGVSNRFSGSKSGNTASLTISGLQAEDEADYYCSSYYFYLQRIVFGGGTKLTVL",
    "MEASURED_RESULT": 10.24
  }
]

response.value for MOR04658 Fab (Fab, V domains shown, Fab) VH: QVQLVESGGGLVQPGGSLRLSCAASGFTFSSFGMSWVRQAPGKGLEWVSNISSSGSSTYYADSVKGRFTISRDNSKNTLYLQMNSLRAEDTAVYYCARYWGTPYLMQFDNWGQGTLVTVSS VL: DIALTQPASVSGSPGQSITISCTGTSSDVGGYNSVSWYQQHPGKAPKLMIYSVSSRPSGVSNRFSGSKSGNTASLTISGLQAEDEADYYCSSYDTNKPLVVFGGGTKLTVL (field: pKd) = 8.37
